Biological target: tubulin covalently linked to a biotinylated stathmin-like peptide
Experiment: ELISA
Conditions: chain shown with the change; buffer incubation after binding; 2 nM biotinylated peptide-coupled tubulin for coating; parent: est. 0.082; read off a plot
result_type: response (AU)
Give just the number in AU; leave the unit off.

Return the recorded response value; entry: DARPin D1 I152T; N158S (protein) MRGSHHHHHHGSDLGKKLLEAARAGQDDEVRILMANGADVNATDASGLTPLHLAATYGHLEIVEVLLKHGADVNAIDIMGSTPLHLAALIGHLEIVEVLLKHGADVNAVDTWGDTPLHLAAIMGHLEIVEVLLKHGADVNAQDKFGKTAFDTSIDNGSEDLAEILQKLN
0.61

Next:
Return the recorded response value; entry: DARPin D1 I152T (protein) MRGSHHHHHHGSDLGKKLLEAARAGQDDEVRILMANGADVNATDASGLTPLHLAATYGHLEIVEVLLKHGADVNAIDIMGSTPLHLAALIGHLEIVEVLLKHGADVNAVDTWGDTPLHLAAIMGHLEIVEVLLKHGADVNAQDKFGKTAFDTSIDNGNEDLAEILQKLN
0.48

Return the recorded response value; entry: DARPin D1 H118R; I152T; N158S (protein) MRGSHHHHHHGSDLGKKLLEAARAGQDDEVRILMANGADVNATDASGLTPLHLAATYGHLEIVEVLLKHGADVNAIDIMGSTPLHLAALIGHLEIVEVLLKHGADVNAVDTWGDTPLRLAAIMGHLEIVEVLLKHGADVNAQDKFGKTAFDTSIDNGSEDLAEILQKLN
0.75

Return the recorded response value; entry: DARPin D1 N158S (protein) MRGSHHHHHHGSDLGKKLLEAARAGQDDEVRILMANGADVNATDASGLTPLHLAATYGHLEIVEVLLKHGADVNAIDIMGSTPLHLAALIGHLEIVEVLLKHGADVNAVDTWGDTPLHLAAIMGHLEIVEVLLKHGADVNAQDKFGKTAFDISIDNGSEDLAEILQKLN
0.15

Return the recorded response value; entry: DARPin D1 H118R (protein) MRGSHHHHHHGSDLGKKLLEAARAGQDDEVRILMANGADVNATDASGLTPLHLAATYGHLEIVEVLLKHGADVNAIDIMGSTPLHLAALIGHLEIVEVLLKHGADVNAVDTWGDTPLRLAAIMGHLEIVEVLLKHGADVNAQDKFGKTAFDISIDNGNEDLAEILQKLN
0.71

Return the recorded response value; entry: DARPin D1 I32V; N74S; I76S; I78L; H118R; I122V; E127K; V131A; F150Y; I152T; N158S (protein) MRGSHHHHHHGSDLGKKLLEAARAGQDDEVRVLMANGADVNATDASGLTPLHLAATYGHLEIVEVLLKHGADVSASDLMGSTPLHLAALIGHLEIVEVLLKHGADVNAVDTWGDTPLRLAAVMGHLKIVEALLKHGADVNAQDKFGKTAYDTSIDNGSEDLAEILQKLN
0.72

FYI, the data here is from paper PMC4933879.
